- Tested System: HLA-DR DRB1*1501 (human)
- Method: competition vs 125I-labeled peptide, purified HLA
Outcome Measure: pIC50
// scale note: pIC50 = -log10(conc_M); give the bare number

Use the examples below as a reference point.
PTTYISVGTSTLNQRL (modifications not checked) [Flu.HA.210]	5.76
VSLVKSDQICIGYHA (modifications not checked) [Flu.HA.11]	4.84
VVWLIKKNSTYPTIKR (modifications not checked) [Flu.HA.163]	7.00

Enquiry: Please give the documented pIC50 of CPKYVKSNRLVLATGL (modifications not checked) [Flu.HA.318]
Return: 6.64

Enquiry: Look up and report measured pIC50 for this entry: IYQILSIYSTVASSLA (modifications not checked) [Flu.HA.529]
Return: 8.33

Enquiry: Identify the reported pIC50 for the following entry. ILSIYSTVASSLALAI (modifications not checked) [Flu.HA.532]
Return: 7.70

Enquiry: Give the reported pIC50 for this binder. EALMEWLKTRPILSP (modifications not checked) [Flu.M1.43]
Return: 7.74

Value source: patent US20080032921A1
